Tested on: 521955-158-R6-J3-PDC complex spheroid growth, % test/control;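 note: spheroids exposed to compounds for 7 days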
Experiment: Anticancer human tumor 521955-158-R6-J3-PDC patient-derived pancreatic carcinoma cell line growth inhibition [Asc]
Details: second compound 0.01 µM; first compound 0.01 µM; active compounds read low
Field 'label' (enum: met / not met). Set to met when viability, T/C is strictly under 80%; else not met.

- compound: "Cn1ncnc1[C@H]1c2n[nH]c(=O)c3cc(F)cc(c23)N[C@@H]1c1ccc(F)cc1 + CNC(C)C(=O)NC1CN(S(=O)(=O)c2cccc(S(=O)(=O)N3CCC4CCC(C(=O)NC(c5ccccc5)c5ccccc5)N4C(=O)C(NC(=O)C(C)NC)C3)c2)CCC2CCC(C(=O)NC(c3ccccc3)c3ccccc3)N2C1=O"
  testedSystem: "521955-158-R6-J3-PDC complex spheroid growth, % test/control"
  assignedClass: "not met"

Lookup: Input O=C(c1ccc(F)c(F)c1Nc1ccc(I)cc1F)N1CC(O)([C@@H]2CCCCN2)C1 + CNC(C)C(=O)NC1CN(S(=O)(=O)c2cccc(S(=O)(=O)N3CCC4CCC(C(=O)NC(c5ccccc5)c5ccccc5)N4C(=O)C(NC(=O)C(C)NC)C3)c2)CCC2CCC(C(=O)NC(c3ccccc3)c3ccccc3)N2C1=O ; condition: viability, T/C strictly below 80%. Does it hold?
Found: not met

Lookup: Input COc1c(OCCCN2CCOCC2)ccc2c3n(c(=NC(=O)c4cnc(N)nc4)nc12)CCN3 + CNC(C)C(=O)NC1CN(S(=O)(=O)c2cccc(S(=O)(=O)N3CCC4CCC(C(=O)NC(c5ccccc5)c5ccccc5)N4C(=O)C(NC(=O)C(C)NC)C3)c2)CCC2CCC(C(=O)NC(c3ccccc3)c3ccccc3)N2C1=O ; condition: viability, T/C strictly below 80%. Does it hold?
Found: met

Lookup: Input NC1CCC(NC2CC2c2ccccc2)CC1 (stereo not given) + CNC(C)C(=O)NC1CN(S(=O)(=O)c2cccc(S(=O)(=O)N3CCC4CCC(C(=O)NC(c5ccccc5)c5ccccc5)N4C(=O)C(NC(=O)C(C)NC)C3)c2)CCC2CCC(C(=O)NC(c3ccccc3)c3ccccc3)N2C1=O ; condition: viability, T/C strictly below 80%. Does it hold?
Found: not met

Lookup: Input CCN1CCN(Cc2ccc(Nc3ncc(F)c(-c4cc(F)c5nc(C)n(C(C)C)c5c4)n3)nc2)CC1 + CNC(C)C(=O)NC1CN(S(=O)(=O)c2cccc(S(=O)(=O)N3CCC4CCC(C(=O)NC(c5ccccc5)c5ccccc5)N4C(=O)C(NC(=O)C(C)NC)C3)c2)CCC2CCC(C(=O)NC(c3ccccc3)c3ccccc3)N2C1=O ; condition: viability, T/C strictly below 80%. Does it hold?
Found: met

Reference source: PubChem BioAssay AID1963451
